# Tested on: 6C3HED lymphosarcoma;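 also: values are percent inhibition of tumor growth and not deaths per total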
# procedure.summary: animal or person
# Type: in vivo
# experimental.conditions: Mus musculus, 6C3HED, ip, read-out: % inhibition of tumor growth, IP, 150 mg/kg, DX 8
measured.metric: inhibition in vivo at 150 mg/kg (%)
Answer in %, number only, no unit symbol.

# compound, measured.metric, data.value
data = [
    ("N=S(=O)(NC(=O)Nc1ccc(Cl)cc1)c1ccc(C=O)cc1 (centres unmarked) [Example 51]", "inhibition in vivo at 150 mg/kg", 80),
    ("CC(=O)NS(=O)(=NC(=O)Nc1ccc(Cl)cc1)c1ccc(C)cc1 (centres unmarked) [Example 15]", "inhibition in vivo at 150 mg/kg", 0),
    ("CCN=S(=O)(NC(=O)Nc1ccc(Cl)cc1)c1ccc(C)cc1 (centres unmarked) [Example 4]", "inhibition in vivo at 150 mg/kg", 10),
    ("N=S(=O)(NC(=O)Nc1ccc(Cl)cc1)c1ccc2c(c1)CCC2 (centres unmarked) [Example 54]", "inhibition in vivo at 150 mg/kg", 86),
    ("CC(=O)OCc1ccc(S(=N)(=O)NC(=O)Nc2ccc(Cl)cc2)cc1 (centres unmarked) [Example 49]", "inhibition in vivo at 150 mg/kg", 99),
]

// next entry
Query string: Value lookup for inhibition in vivo at 150 mg/kg; key = NS(=O)(=NC(=O)Nc1ccc(Cl)cc1)c1ccc(CO)cc1 (centres unmarked) [Example 50]
Result string: 93
